assay: NCI Yeast Anticancer Drug Screen. Data for the cln2 rad14 strain (AID 165);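 further: 0% = growth equal to vehicle treated cultures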; conditions: S. cerevisiae cln2 rad14 strain, at 50.0 µM, active compounds read high
Compounds without any hit were thinned out: in the full panel of roughly 79,000, 15% have a hit.
Entries and their measured growth inhibition follow.
Write down the numeric answer in % and omit the unit.

Answered cases to consult:
1. O=S1(=O)NC(=NC2CCCC2)c2ccccc21	-35.8
2. CCC(C)NS(=O)(=O)c1ccc(Cl)cc1 (stereo not drawn)	8.6
3. Cc1cc(C)c(S(N)(=O)=O)c(C)c1	-5.4

Here is another molecule to look at.
Could you share which growth inhibition value was measured for O=[N+]([O-])c1ccc(S(=O)(=O)/N=C/c2ccccc2)cc1 ?
14.7

====

test: NCI Yeast Anticancer Drug Screen. Data for the rad50 strain (AID 155);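 further: 0% = growth of vehicle-only cultures of the same strain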; conditions: S. cerevisiae rad50 strain growth inhibition; at 50.0 µM
The panel holds about 79,000 compounds, 15% with a hit somewhere; the sample as a whole holds those more often. Activity calls are given as the source filed them. Rule as the data show it: active = growth inhibition above about 70%; inactive = the rest.
The reply should name one outcome from active, inactive

Before answering, review these 5 worked examples.
1. O=[N+]([O-])C(=C(N1CCCCC1)N1CCCCC1)/C(Cl)=C(\Cl)Br	inactive
2. CN(Cc1ccccc1)C(=O)Nc1ccc(F)c([N+](=O)[O-])c1	inactive
3. c1ccc(C2CN3CCSC3=N2)cc1 (stereo unspecified)	inactive
4. CSc1nc(NC2OCC(O)C(O)C2O)c(Cl)c(=O)[nH]1 (stereo unspecified)	inactive
5. O=C(O)C(O)C(O)C(O)C(O)C(=O)O (stereo unspecified)	inactive

Kindly review the next compound as well.
Please state the recorded outcome for this compound: CCCCC[CH2][Sn]([CH2]CCCCC)([CH2]CCCCC)[NH]S(=O)(=O)c1ccc(C)cc1
active

====

assay: NCI Yeast Anticancer Drug Screen. Data for the sgs1 mgt1 strain (AID 161);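 further: 0% = growth of cultures given vehicle only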; settings: S. cerevisiae sgs1 mgt1 strain, at 50.0 µM, active compounds read high
The panel holds about 79,000 compounds, 15% with a hit somewhere; the sample as a whole holds those more often.
measurement_label: growth inhibition (%)
Report only the number, with the unit % understood.

Examples from the recorded data:
1. COC(=O)c1c2c(cc3c1CC1(Cc4cc5c(c(C(C)=O)c4C1)CCC5)C3)CCC2 (stereo unspecified)	-63.8
2. CC(=O)OCCn1c(C)nc2cc(Cl)c(Cl)cc21	16.3

Value lookup for growth inhibition; key = CN(C)CC(CN(C)C)C(=O)c1ccc(OC2OC(CO)C(O)C(O)C2O)cc1 (stereo unspecified)
-18.4

And what about the molecule c1ccc(C(=C2CCC2)c2c3ccccc3cc3ccccc23)cc1 ?
-7

For O=C1c2ccccc2C(=O)N1CC#CCN1C(=O)c2ccccc2C1=O then?
19.6

Next entry: CC(C)NC(=O)CS(=O)(=O)c1ccc(N)cc1
2.1

And CC1=C(C(=O)Nc2ccccc2C)C(c2ccc(N(C)C)cc2)C(C(=O)Nc2ccccc2C)=C(C)N1 ?
-17.4

====

assay: NCI Yeast Anticancer Drug Screen. Data for the mlh1 rad18 strain (AID 175); conditions: S. cerevisiae mlh1 rad18 strain growth inhibition; at 50.0 µM; active compounds read high
The panel holds about 79,000 compounds, 15% with a hit somewhere; the sample as a whole holds those more often.
The threshold is inclusive: growth inhibition of exactly 10% counts as YES; values below receive NO.

Example entries begin here.
1. O=C(OCC1OC(n2nc(SCc3ccccc3)c(=S)[nH]c2=O)C(OC(=O)c2ccccc2)C1OC(=O)c1ccccc1)c1ccccc1 (stereo unspecified)	YES
2. CCOC(=O)C(N=Nc1ccccc1)C(=O)c1ccccc1 (stereo unspecified)	YES
3. O=C(Nc1c(Oc2ccc(Cl)c(Cl)c2)ccc(Cl)c1S(=O)(=O)O)Nc1c(Oc2ccc(Cl)c(Cl)c2)ccc(Cl)c1S(=O)(=O)O	YES

Quick check: does C/C(=C/C(=O)Nc1ccc2ccccc2c1)Nc1ccc2ccccc2c1 have growth inhibition greater than or equal to 10%?
NO

Next compound up: CCOC(=O)C(C)(Cc1cccc2ccccc12)C(=O)OCC
NO

Request: Cc1ccc2c(c1)nc(-c1ccccn1)n2CCc1ccncc1
YES

What about Brc1ccc(Br)c2nc(/C=C/c3ccccc3)ccc12 ?
NO

Then what about the compound O=c1[nH]nnc2ccccc12 ?
NO

====

test: NCI Yeast Anticancer Drug Screen. Data for the mlh1 rad18 strain (AID 175); settings: S. cerevisiae mlh1 rad18 strain growth inhibition; at 50.0 µM; active compounds read high
Compounds without any hit were thinned out: in the full panel of roughly 79,000, 15% have a hit.
measurement_label: growth inhibition (%)
Reply numerically in %, unit not repeated.

Solved cases below.
1) CC(C#N)NCc1ccc(C(C)NC(C)C#N)cc1 (configuration not stated)	-15.7
2) N#Cc1ccc(C=NC23CC4CC(CC(C4)C2)C3)cc1	-4.1
3) CCCCCCCCCCCCCCCCCCCCCC	-18.1
4) O=C(Nc1ccccc1)n1cc(-c2ccccn2)c(N2CCOCC2)n1	-14.4
5) CCOC(=O)C1Cc2ccccc2OC1=O (configuration not stated)	3.85
6) C=C1C(=O)N2CCc3c([nH]c4ccccc34)[C@H]2C[C@@H]1CO	10.8
7) O=CNCC1(c2ccccc2)CCNCC1	-4.6
8) COCCCN1C(=O)C2c3[nH]c4ccccc4c3C3CCC(C(C)(C)C)CC3C2C1=O (configuration not stated)	49.5
9) Cc1ccc(S(=O)(=O)C2c3nc4ccccc4cc3-c3nc4ccccc4nc32)cc1 (configuration not stated)	-14.9
10) CC1=CC(=O)CC(C(C)C)C1 (configuration not stated)	5.2

Could you share which growth inhibition value was measured for COc1ccc(NC(=O)Oc2ccc(OC)cc2)cc1 ?
-16.1

# repeat for CC1=C(C(c2ccccc2)c2ccccc2)C(=O)c2ccccc2C1=O
-0.7

====

assay: NCI Yeast Anticancer Drug Screen. Data for the sgs1 mgt1 strain (AID 161);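 further: 0% = growth of cultures given vehicle only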; details: S. cerevisiae sgs1 mgt1 strain, at 50.0 µM, active compounds read high
The panel holds about 79,000 compounds, 15% with a hit somewhere; the sample as a whole holds those more often. Where a SMILES comes first, the peptide text is derived from it.
Reported growth inhibition values for a set of molecules
Unit % implied. Number only.

Consider the worked cases shown below.
1) CC(=O)Nc1ccc(S(=O)(=O)N/N=c2/sc3ccccc3n2C)cc1N	-3.8
2) Cc1ccc(/C=C2\N=C(N3CCCC(CO)C3)NC2=O)cc1 (centres undefined)	-18.3
3) COc1ccc2c(NCCCCCCNc3c4ccccc4nc4cc(OC)ccc34)c3ccccc3nc2c1	92.5
4) O=C1c2ccccc2C2(O)Oc3cccc(O)c3C12O (centres undefined)	-2
5) CCOC(=O)C[n+]1ccc(C(=O)OCC)cc1	0.05

Look up growth inhibition: CC1NC(=O)C2CCCN2C(=O)C2CCCN2C(=O)C(C(C)C)NC(=O)C(Cc2ccccc2)NC(=O)C(Cc2ccccc2)NC(=O)C2CCCN2C(=O)C2CCCN2C(=O)C(Cc2ccccc2)NC(=O)C(Cc2ccccc2)NC1=O (centres undefined) (cyclo(AFFPPFFVPP); configuration not given here)
-2.35

Next: CN(N)C(=O)Nc1cccc(Cl)c1
16.4

Cool, now CN(C)C(=O)CCOc1ccccc1
-18.9

Try this molecule next: Cc1ccc(S(=O)(=O)NN=C2CCS(=O)CC2)cc1 (centres undefined)
7.6

====

assay: NCI Yeast Anticancer Drug Screen. Data for the sgs1 mgt1 strain (AID 161);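 further: 0% = growth of cultures given vehicle only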; conditions: S. cerevisiae sgs1 mgt1 strain, at 50.0 µM, active compounds read high
Compounds without any hit were thinned out: in the full panel of roughly 79,000, 15% have a hit.
# key: entry, value: growth inhibition
State just the number; it will be interpreted in %.

1. Cc1cccnc1C(=O)O.[Cu+2]	-29.1
2. COc1cc2c(cc1C/C=C/c1ccccc1)OCO2	-0.9
3. O=C1OC2c3ccccc3C3CC(=O)C2C13 (configuration not stated)	9.35
4. COc1nc(N)c2[nH]cnc2n1	2.05
5. O=C(O)c1c(F)c(F)c(C(=O)O)c(F)c1F	16.3
6. O=C(Cc1nc(-c2ccccc2)cc(=O)n1-c1ccccc1Cl)c1ccncc1	-6.3
7. CCSCC1C(=O)C23C(O)C1CCC2C12COC3(O)C(O)C1C(C)(C)CCC2O (configuration not stated)	7.45
8. CCOC(=O)C1=CN(C)C=C(Br)C1C#N (configuration not stated)	4.55

Sample NC(=O)C1CCc2ccccc2C1 (configuration not stated) — what was its growth inhibition?
2.6

====

Catalogue of growth inhibition readings, one per entry.
Assay: NCI Yeast Anticancer Drug Screen. Data for the mec2-1 strain (AID 157)
Details: S. cerevisiae mec2-1 strain, at 50.0 µM, active compounds read high
Protocol: Growth inhibition of yeast strains with defined genetic alterations is measured as a screen for potential anti-cancer activity. Selected strains with alterations in DNA damage repair or cell cycle control were exposed to compounds and growth inhibition was measured relative to vehicle treated controls. The strain used in this assay is mec2-1
About 79,000 compounds went through this panel and 15% of them were active in at least one assay; those are over-represented in the sample as a whole. Calls of active or inactive are those of the source. Rule as the data show it: active = growth inhibition above about 70%; inactive = the rest.

1) O=C(O)CC(NC(=O)/C(=C/c1ccccc1)NC(=O)c1ccccc1)C(=O)O (configuration not stated)	0.65% (inactive)
2) CC(=O)N1CC/C(=C\c2ccccc2)C1=O	-7.25% (inactive)
3) CC(=O)OCCOC(=O)Nc1ccccc1	-14.5% (inactive)

Query (molecule): NC(=O)/N=C/NC(N)=O ; field requested: growth inhibition
-14.3% (inactive)

Also, CC[n+]1ccc(-c2ccccc2)o1 please.
13.1% (inactive)

Moving on to NC(=O)N/N=C/C(Cc1ccccc1)=N/OCc1ccccc1
-1.8% (inactive)

Moving on to the next molecule: CN1CCN(c2ccncc2S(=O)(=O)N2CCN(C)CC2)CC1
-12.7% (inactive)
